For each of the compounds below, state its composite z-score.
biological target: Albumin (Bos taurus) (UniProt P02769); experiment: bovine serum albumin binders on microarray, profiling panel, artefact control for SMM control protein annotation, biochemical, small-molecule microarray, Alexa647 label, 635/667 nm fluorescence (AID 1118); details: BSA-A647 binding, fluorescence 635 nm, higher = more signal;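 further: score merges 667 nm emission intensity and signal-to-noise per printed compound spot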
Sequence (P02769 whole entry, looked up): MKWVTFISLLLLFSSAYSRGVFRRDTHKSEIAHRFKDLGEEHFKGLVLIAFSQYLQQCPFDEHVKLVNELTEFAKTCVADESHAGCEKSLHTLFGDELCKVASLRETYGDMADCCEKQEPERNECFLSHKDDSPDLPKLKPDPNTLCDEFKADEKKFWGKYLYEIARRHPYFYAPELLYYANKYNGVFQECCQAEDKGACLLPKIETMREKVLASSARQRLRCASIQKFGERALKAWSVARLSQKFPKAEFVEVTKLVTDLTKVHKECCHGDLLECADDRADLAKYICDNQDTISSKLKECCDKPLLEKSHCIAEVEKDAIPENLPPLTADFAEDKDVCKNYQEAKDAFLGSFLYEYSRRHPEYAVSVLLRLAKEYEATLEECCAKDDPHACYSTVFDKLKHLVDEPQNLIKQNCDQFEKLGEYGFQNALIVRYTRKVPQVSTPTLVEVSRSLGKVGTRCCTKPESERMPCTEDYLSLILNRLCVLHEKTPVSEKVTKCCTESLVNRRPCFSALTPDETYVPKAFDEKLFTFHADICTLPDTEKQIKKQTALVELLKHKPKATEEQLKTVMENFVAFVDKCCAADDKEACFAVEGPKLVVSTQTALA
Write no unit; give the number alone.

Inquiry: Look up composite z-score with Albumin (Bos taurus) (UniProt P02769) for this compound: CCC=CCCC(OC(=O)c1ccc(Br)cc1)C1=CCCCC1=O (stereo not given)
Reply text: 0.231

Inquiry: Look up composite z-score with Albumin (Bos taurus) (UniProt P02769) for this compound: `C[C@@H](ON=C1[C@H]2CCn3c(=O)n(-c4ccccc4)c(=O)n3[C@H]2[C@H](O)[C@@H]2O[C@H]12)c1cn([C@@H]2COC[C@H]2O)nn1`
Reply text: -0.244

Inquiry: Look up composite z-score with Albumin (Bos taurus) (UniProt P02769) for this compound: `CCN1C(=O)[C@H]2[C@H]3[C@H](O)[C@H](O)CC(=NOC[C@H]4O[C@H](c5ccccc5)C=C[C@@H]4Oc4ccc(OC)cc4)[C@@H]3CC[C@H]2C1=O`
Reply text: 0.741

Inquiry: Look up composite z-score with Albumin (Bos taurus) (UniProt P02769) for this compound: `CC(C)=CCCC(C)=CCON=C1C[C@@H](O)[C@@H](O)[C@@H]2[C@@H]3C(=O)N(Cc4ccccc4)C(=O)[C@@H]3CC[C@H]12`
Reply text: 0.188

Inquiry: Look up composite z-score with Albumin (Bos taurus) (UniProt P02769) for this compound: `C[C@@H](c1ccccc1)N1C(=O)[C@H]2[C@H]3[C@H](O)[C@H](O)CC(=NOCc4ccccc4)[C@H]3CC[C@H]2C1=O`
Reply text: 0.437

Inquiry: Look up composite z-score with Albumin (Bos taurus) (UniProt P02769) for this compound: `CC(=O)OC[C@H]1O[C@H](C#Cc2ccccc2)C=C[C@@H]1OC(C)=O`
Reply text: 0.243

Inquiry: Look up composite z-score with Albumin (Bos taurus) (UniProt P02769) for this compound: `O=C(NN=C1C[C@@H](O)[C@@H](O)[C@@H]2[C@@H]3C(=O)N(C4CCCCC4)C(=O)[C@@H]3CC[C@@H]12)OCc1ccccc1`
Reply text: 0.566

Inquiry: Look up composite z-score with Albumin (Bos taurus) (UniProt P02769) for this compound: CCOC(=O)[C@H](CC(C)C)NC(=O)CCC1CC(OC(=O)NCc2cccc3ccccc23)CC2(CCCC(COC(=O)NCCOC)O2)O1 (stereo not given in full)
Reply text: 0.222

Inquiry: Look up composite z-score with Albumin (Bos taurus) (UniProt P02769) for this compound: Cc1ccc(S(=O)(=O)NC(CCc2ccccc2)CC(=O)C(C)(C)C)cc1 (stereo not given)
Reply text: -0.122

Inquiry: Look up composite z-score with Albumin (Bos taurus) (UniProt P02769) for this compound: CCOC(=O)[C@H](Cc1ccccc1)NC(=O)CCC1CC(OC(=O)NCc2cccc3ccccc23)CC2(CCCC(COC(=O)NCC(c3ccccc3)c3ccccc3)O2)O1 (stereo not given in full)
Reply text: 0.313
